The reported numbers originate from patent US5750733A.

experiment: Ross-Miles Foam Height of Various Sugar Based Surfactants; details: 0.1% surfactant, 50° C., 0 ppm hardness
result type: Initial foam height (mm)
Only the number, expressed in mm, is required.

Look over these answered cases.
- compound: "CCCCCCCC(O)CCCC(=O)NC[C@H](O)[C@@H](O)[C@H](O)[C@H](O)CO (stereo partly drawn) [Dodecyl 5-Hydroxy D-Glucamide, dodecyl 5-hydroxy D-glucamide]"
  measurement: 67
- compound: "CCCCCCCCCCNC(=O)[C@H](O)[C@@H](O)[C@H](O)[C@H](O)CO [Decyl D-Gluconamide]"
  measurement: 199
- compound: "CN(C[C@H](O)[C@@H](O)[C@H](O[C@H]1O[C@H](CO)[C@@H](O)[C@H](O)[C@H]1O)[C@H](O)CO)C(=O)CCCCCCCCCCCO [Dodecyl 12-Hydroxy Methyl D-Maltamide, dodecyl 12-hydroxy methyl D-maltamide]"
  measurement: 57
- compound: "CCCCCCCCNC(=O)[C@H](O)[C@@H](O)[C@H](O)[C@H](O)CO [Octyl D-Gluconamide]"
  measurement: 0
- compound: "CCCCCCCC(O)CCC(=O)NC[C@H](O)[C@@H](O)[C@H](O)[C@H](O)CO (stereo partly drawn) [Undecyl 4-Hydroxy D-Glucamide, undecyl-4-hydroxy D-glucamide]"
  measurement: 60

Consider the additional compound presented here.
# input # return recorded Initial foam height for input CCCCCCCCCCCC(=O)N(C)C[C@H](O)[C@@H](O)[C@H](O)[C@H](O)CO [Dodecyl Methyl D-Glucamide, dodecyl methyl D-glucamide]
# output 173

----------
test: Micellization and Surface Tension Reduction; type: physicochemical; conditions: in water
result type: Micellization and Surface Tension Reduction

- compound: "CCCCCCCCCCCCCCNC(=O)[C@H](O)[C@@H](O)[C@H](O)[C@H](O)CO [Tetradecyl D-Gluconamide]"
  measurement: "No"
- compound: "CCCCCCCCCCCCCC(=O)NC[C@H](O)[C@@H](O)[C@H](O)[C@H](O)CO [Tetradecyl D-Glucamide]"
  measurement: "No"
- compound: "CN(C[C@H](O)[C@@H](O)[C@H](O[C@H]1O[C@H](CO)[C@@H](O)[C@H](O)[C@H]1O)[C@H](O)CO)C(=O)CCCCCCCCCCCO [Dodecyl 12-Hydroxy Methyl D-Maltamide, dodecyl 12-hydroxy methyl D-maltamide]"
  measurement: "Yes"

----------
assay: Micellization and Surface Tension Reduction; type: physicochemical; conditions: in water
result type: Micellization and Surface Tension Reduction

Worked examples follow.
- compound: "CCCCCCCCCCCC(=O)NC[C@H](O)[C@@H](O)[C@H](O)[C@H](O)CO [Dodecyl D-Glucamide, dodecyl D-glucamide]"
  measurement: "No"
- compound: "CCCCCCCCCCCCCCCC(=O)NC[C@H](O)[C@@H](O)[C@H](O)[C@H](O)CO [Hexadecyl D-Glucamide]"
  measurement: "No"
- compound: "CCCCCCCCCCCCCCCCNC(=O)[C@H](O)[C@@H](O)[C@H](O)[C@H](O)CO [Hexadecyl D-Gluconamide]"
  measurement: "No"
- compound: "CCCCCCCCCCCCNC(=O)[C@H](O)[C@@H](O)[C@H](O)[C@H](O)CO [Dodecyl D-Gluconamide]"
  measurement: "No"
- compound: "CCCCCCCCCCNC(=O)[C@H](O)[C@@H](O)[C@H](O)[C@H](O)CO [Decyl D-Gluconamide]"
  measurement: "Yes"

# input Quickly give me recorded Micellization and Surface Tension Reduction for CCCCCCCC(O)CCCC(=O)NC[C@H](O)[C@@H](O)[C@H](O)[C@H](O)CO (stereo partly drawn) [Dodecyl 5-Hydroxy D-Glucamide, dodecyl 5-hydroxy D-glucamide]
# output Yes

# input # return recorded Micellization and Surface Tension Reduction for input CCCCCCCCCCCCNC(=O)[C@@H](O)[C@H](O)[C@@H](O)[C@@H](O)CO [Dodecyl L-Gluconamide]
# output No

----------
Final foam height (10 min.) values, listed per item
assay: Ross-Miles Foam Height of Various Sugar Based Surfactants; conditions: 0.1% surfactant, 50° C., 0 ppm hardness, after 10 minutes
Return type: number; implicit unit mm.

# count of solved cases: 2
- compound: "CCCCCCCCCCCC(=O)N(C)C[C@H](O)[C@@H](O)[C@H](O)[C@H](O)CO [Dodecyl Methyl D-Glucamide, dodecyl methyl D-glucamide]"
  Final foam height (10 min.) [mm]: 157
- compound: "CCCCCCCCCCNC(=O)[C@H](O)[C@@H](O)[C@H](O)[C@H](O)CO [Decyl D-Gluconamide]"
  Final foam height (10 min.) [mm]: 6

Next compound, please.
# input Fill in reported Final foam height (10 min.) for this entry: CCCCCCCCNC(=O)[C@H](O)[C@@H](O)[C@H](O)[C@H](O)CO [Octyl D-Gluconamide]
# output 0

----------
Each item that follows carries a reported Krafft Point (0.1%).
experiment: Krafft Point (Water Solubility Test); details: 0.1% dispersion in water by weight

- molecule: "CCCCCCCCCCCC(=O)NC[C@H](O)[C@@H](O)[C@H](O)[C@H](O)CO [Dodecyl D-Glucamide, dodecyl D-glucamide]"
  Krafft Point (0.1%): "> 100 °C"
- molecule: "CCCCCCCCCCCCCCCCNC(=O)[C@H](O)[C@@H](O)[C@H](O)[C@H](O)CO [Hexadecyl D-Gluconamide]"
  Krafft Point (0.1%): "> 100 °C"
- molecule: "CCCCCCCCNC(=O)[C@H](O)[C@@H](O)[C@H](O)[C@H](O)CO [Octyl D-Gluconamide]"
  Krafft Point (0.1%): "12 °C"
- molecule: "CCCCCCCC(O)CCCC(=O)NC[C@H](O)[C@@H](O)[C@H](O)[C@H](O)CO (stereo partly drawn) [Dodecyl 5-Hydroxy D-Glucamide, dodecyl 5-hydroxy D-glucamide]"
  Krafft Point (0.1%): "41 °C"

# input Hello, please tell me recorded Krafft Point (0.1%) for this one: CN(C[C@H](O)[C@@H](O)[C@H](O[C@H]1O[C@H](CO)[C@@H](O)[C@H](O)[C@H]1O)[C@H](O)CO)C(=O)CCCCCCCCCCCO [Dodecyl 12-Hydroxy Methyl D-Maltamide, dodecyl 12-hydroxy methyl D-maltamide]
# output < 21 °C

# input Fill in Krafft Point (0.1%) for record CCCCCCCCCCCC(=O)N(C)C[C@H](O)[C@@H](O)[C@H](O)[C@H](O)CO [Dodecyl Methyl D-Glucamide, dodecyl methyl D-glucamide]
# output 45 °C

# input Specify Krafft Point (0.1%) for CCCCCCCCCCCCCC(=O)NC[C@H](O)[C@@H](O)[C@H](O)[C@H](O)CO [Tetradecyl D-Glucamide] and stop.
# output > 100 °C

# input Complete the entry with Krafft Point (0.1%) for CCCCCCCCCCNC(=O)[C@H](O)[C@@H](O)[C@H](O)[C@H](O)CO [Decyl D-Gluconamide]
# output 75 °C

# input Input CCCCCCCCCCCCNC(=O)[C@@H](O)[C@H](O)[C@@H](O)[C@@H](O)CO [Dodecyl L-Gluconamide] , output reported Krafft Point (0.1%).
# output > 100 °C

----------
Experiment: Micellization and Surface Tension Reduction
Assay type: physicochemical
Settings: in water
Text: The appearance and development of micelles are important since detergency (solubilization of soils) by dishwashing liquids, shampoos, detergents, etc., depend on the formation of these aggregates in solution.
result type: Micellization and Surface Tension Reduction

- compound: "CCCCCCCCCCCC(=O)N(C)C[C@H](O)[C@@H](O)[C@H](O)[C@H](O)CO [Dodecyl Methyl D-Glucamide, dodecyl methyl D-glucamide]"
  measurement: "Yes"
- compound: "CCCCCCCCNC(=O)[C@H](O)[C@@H](O)[C@H](O)[C@H](O)CO [Octyl D-Gluconamide]"
  measurement: "Yes"
- compound: "CCCCCCCCCCCCCCCCCC(=O)NC[C@H](O)[C@@H](O)[C@H](O)[C@H](O)CO [Octadecyl D-Glucamide]"
  measurement: "No"
- compound: "CCCCCCCC(O)CCC(=O)NC[C@H](O)[C@@H](O)[C@H](O)[C@H](O)CO (stereo partly drawn) [Undecyl 4-Hydroxy D-Glucamide, undecyl-4-hydroxy D-glucamide]"
  measurement: "Yes"

----------
assay: Ross-Miles Foam Height of Various Sugar Based Surfactants; settings: 0.1% surfactant, 50° C., 0 ppm hardness, after 10 minutes

- compound: "CCCCCCCC(O)CCCC(=O)NC[C@H](O)[C@@H](O)[C@H](O)[C@H](O)CO (stereo partly drawn) [Dodecyl 5-Hydroxy D-Glucamide, dodecyl 5-hydroxy D-glucamide]"
  Final foam height (10 min.): "Negligible"
- compound: "CCCCCCCC(O)CCC(=O)NC[C@H](O)[C@@H](O)[C@H](O)[C@H](O)CO (stereo partly drawn) [Undecyl 4-Hydroxy D-Glucamide, undecyl-4-hydroxy D-glucamide]"
  Final foam height (10 min.): "Negligible"
- compound: "CN(C[C@H](O)[C@@H](O)[C@H](O[C@H]1O[C@H](CO)[C@@H](O)[C@H](O)[C@H]1O)[C@H](O)CO)C(=O)CCCCCCCCCCCO [Dodecyl 12-Hydroxy Methyl D-Maltamide, dodecyl 12-hydroxy methyl D-maltamide]"
  Final foam height (10 min.): "Negligible"
